measured.on: Acetylcholinesterase from Electrophorus electricus (electric eel) Type VI-S (Electrophorus electricus)
Construct: purchased Sigma-Aldrich C3389-500UN
Sequence (O42275 24-633): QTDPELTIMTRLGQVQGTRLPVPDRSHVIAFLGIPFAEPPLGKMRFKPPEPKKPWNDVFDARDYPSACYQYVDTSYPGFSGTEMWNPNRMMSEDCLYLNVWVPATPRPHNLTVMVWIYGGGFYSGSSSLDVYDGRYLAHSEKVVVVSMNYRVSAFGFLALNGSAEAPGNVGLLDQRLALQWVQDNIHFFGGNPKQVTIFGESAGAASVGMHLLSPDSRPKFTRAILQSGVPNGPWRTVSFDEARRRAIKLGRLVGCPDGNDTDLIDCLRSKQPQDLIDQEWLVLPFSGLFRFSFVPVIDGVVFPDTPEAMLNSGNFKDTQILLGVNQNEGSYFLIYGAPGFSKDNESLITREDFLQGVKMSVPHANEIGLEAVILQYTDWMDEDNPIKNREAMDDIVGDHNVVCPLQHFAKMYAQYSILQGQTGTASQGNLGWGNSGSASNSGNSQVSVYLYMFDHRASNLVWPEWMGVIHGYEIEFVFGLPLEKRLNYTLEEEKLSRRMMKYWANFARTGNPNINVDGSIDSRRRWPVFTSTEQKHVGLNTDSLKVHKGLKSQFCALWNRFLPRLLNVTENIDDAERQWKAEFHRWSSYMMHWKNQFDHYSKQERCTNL
method: biochemical
study.conditions: regression curve by GraphPad Prism; Example 2; read-out: IC50
Procedure: 2. […] Employing the absorbance values obtained, the AchE activity (units/mL) was calculated by the formula below, and the average value and standard deviation of the AchE activity (units/mL) for each test substance at each concentration was calculated. [formula] • (A412) final: Absorbance value at 412 nm after 10 minutes of reaction • (A412) initial Absorbance value at 412 nm after 2 minutes of reaction • n: Dilution coefficient (n=120) 0.2: Coefficient by Calibrator […]
value.type: IC50
Could you write the number and then its unit?

Can you look up the measured IC50 of `COc1ccccc1O` for me? 17 mM

Each recorded value in this set is attributed to patent US12702148B2.
